Test system: NCI-H838
METHOD_SUMMARY: relative viability (nuclei count vs DMSO), 5 days (fraction); higher = more cells survive
MEASUREMENT_CONTEXT: first compound 0.1265 µM
METRIC_NAME: relative viability
// keep it numeric: no unit symbol after the value

Requested read-out relative viability, target or system NCI-H838, entry Cc1sc2c(c1C)C(c1ccc(Cl)cc1)=N[C@@H](CC(=O)OC(C)(C)C)c1nnc(C)n1-2 [JQ1] + Nc1ncn([C@H]2C[C@H](O)[C@@H](CO)O2)c(=O)n1 [Decitabine] (partner 2 µM)
0.371

Requested read-out relative viability, target or system NCI-H838, entry Cc1sc2c(c1C)C(c1ccc(Cl)cc1)=N[C@@H](CC(=O)OC(C)(C)C)c1nnc(C)n1-2 [JQ1] + Cc1nc(Nc2ncc(C(=O)Nc3c(C)cccc3Cl)s2)cc(N2CCN(CCO)CC2)n1 [Dasatinib] (partner 0.075 µM)
0.217

Requested read-out relative viability, target or system NCI-H838, entry Cc1sc2c(c1C)C(c1ccc(Cl)cc1)=N[C@@H](CC(=O)OC(C)(C)C)c1nnc(C)n1-2 [JQ1] + CCNC(=O)c1noc(-c2cc(C(C)C)c(O)cc2O)c1-c1ccc(CN2CCOCC2)cc1 [Luminespib] (partner 0.01 µM)
0.288

Requested read-out relative viability, target or system NCI-H838, entry Cc1sc2c(c1C)C(c1ccc(Cl)cc1)=N[C@@H](CC(=O)OC(C)(C)C)c1nnc(C)n1-2 [JQ1] + COc1cc2c(Oc3ccc(NC(=O)C4(C(=O)Nc5ccc(F)cc5)CC4)cc3F)ccnc2cc1OCCCN1CCOCC1 [Foretinib] (partner 0.25 µM)
0.703
